Values were extracted from the RNAGym collection of RNA variant scans (doi:10.7554/elife.80360).

B1: Hairpin Ribozyme (parent)
chain: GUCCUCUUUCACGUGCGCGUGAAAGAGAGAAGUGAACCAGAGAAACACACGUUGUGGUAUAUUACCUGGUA

variants of: B1; assay: self-cleavage, relative activity (ratio to wild type); higher = more cleavage; co-transcriptional
reported metric: self-cleavage
// keep it numeric: no unit symbol after the value

## Input Give its self-cleavage value. Item: G15U A22C
## Output 0.681

## Input What does the record list as self-cleavage for A41U G51C ?
## Output 1.27

## Input Return reported self-cleavage; argument: C12A A71G
## Output 0.848

## Input Name the reported self-cleavage value associated with the variant C46A G54A
## Output 0.126

## Input Fill blank: measured self-cleavage of the variant A23U G68A is ____.
## Output 0.184

## Input Field request: self-cleavage | item: G54A U60G
## Output 0.204

## Input Entry under review: C18A A47G . Reported self-cleavage?
## Output 0.216

## Input # get_value(readout='self-cleavage', item= A24G U62C )
## Output 0.257

## Input Which self-cleavage value is on record for U53C A64C ?
## Output 0.278

## Input Query: self-cleavage; subject: U7G G13U
## Output 0.632

## Input Using the record for A24U C38G , report its self-cleavage.
## Output 0.135
